B1: SCNN1D (parent)
chain: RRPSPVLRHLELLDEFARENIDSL

- Variants of: B1
- ASSAY_DETAILS: protein stability index of a GFP-peptide fusion (GPS, HEK-293T) (PSI 1-6); higher = more stable;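 further: lentivirally expressed fusions sorted by FACS into six bins by GFP to DsRed ratio, PSI derived from sequencing read proportions per bin multiplied by bin number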
- CONDITION: c terminus: a fixed tail appended
Here, each record is paired with measured protein stability index data.
ASSAY_METRIC: protein stability index

>>> reported_result("RRPSPVLRHLELLDEFALENIDSL [R18L]")
2.43
>>> reported_result("RQPSPVLRHLELLDEFARENIDSL [R2Q]")
3.21
>>> reported_result("RRPSPWLRHLELLDEFARENIDSL [V6W]")
1.79
>>> reported_result("RRPSPVPRHLELLDEFARENIDSL [L7P]")
4.08
>>> reported_result("RRPSPVLRHLELLDEFARESIDSL [N20S]")
2.36
>>> reported_result("RRPSIVLRHLELLDEFARENIDSL [P5I]")
2.27
>>> reported_result("RRPSPVLRRLELLDEFARENIDSL [H9R]")
3.92
>>> reported_result("ARPSPVLRHLELLDEFARENIDSL [R1A]")
2.1
>>> reported_result("RRPSPVLRHLELLTEFARENIDSL [D14T]")
2.21
>>> reported_result("RRPSPVLDHLELLDEFARENIDSL [R8D]")
4.71
>>> reported_result("RRPSPVLRHLELLDEFIRENIDSL [A17I]")
2.46
